- Measurement Protocol: Plasma half-life was measured in rabbit after administration of compound 12 mg/kg intravenously
- Conditions: iv
Metric Name: half-life

Lab note: `CCCC[C@@H](C[C@@H](CCc1ccc(-c2ccc(F)cc2)cc1)C(=O)N[C@H](C(=O)NC)C(C)(C)C)C(=O)O` gave half-life of 54 min

* * *

- Measurement Protocol: Clearance was measured in rat after administration of compound 20 mg/kg intravenously
- Type: ADME, organism-based
- Set-up: dose 20 mg/kg, route intravenous
- Conditions: in vivo, iv
Metric Name: clearance (mL/min/kg)
Could you give me the number in mL/min/kg? Just the number is fine.

Lab note: `CCCC[C@@H](C[C@@H](CCc1ccc(-c2ccc(F)cc2)cc1)C(=O)N[C@H](C(=O)NC)C(C)(C)C)C(=O)O` gave clearance of 1.3

* * *

- Measurement Protocol: Volume distribution was measured in rat after administration of compound 20 mg/kg intravenously
- Type: ADME, organism-based
- Set-up: dose 20 mg/kg, route intravenous
- Conditions: in vivo, iv, read-out: Vdss
Metric Name: Vd
Value and unit, in that order.

Lab note: `CCCC[C@@H](C[C@@H](CCc1ccc(-c2ccc(F)cc2)cc1)C(=O)N[C@H](C(=O)NC)C(C)(C)C)C(=O)O` gave Vd of 0.32 L/kg

* * *

Dear all, this message contains Ki results, target or system 72 kDa type IV collagenase (Homo sapiens, UniProt P08253).
Could you give me the number in nM? Just the number is fine.

CCCC[C@@H](C[C@@H](CCc1ccc(CCC)cc1)C(=O)N[C@H](C(=O)Nc1ccncc1)C(C)(C)C)C(=O)O 22
CCCC[C@@H](C[C@@H](CCc1ccc(-c2cccc(C(F)(F)F)c2)cc1)C(=O)N[C@H](C(=O)NC)C(C)(C)C)C(=O)O 3600
CCCC[C@@H](C[C@@H](CCc1ccc(CCc2ccccc2)cc1)C(=O)N[C@H](C(=O)NC)C(C)(C)C)C(=O)O 380
CCCC[C@@H](C[C@@H](CCc1ccc(-c2ccc(Br)cc2)cc1)C(=O)N[C@H](C(=O)NC)C(C)(C)C)C(=O)O 17
CCCC[C@@H](C[C@@H](CCc1ccc(C2CCCCCC2)cc1)C(=O)N[C@H](C(=O)NC)C(C)(C)C)C(=O)O 1900

Entry `CCCC[C@@H](C[C@@H](CCc1ccc(-c2ccccc2S(=O)(=O)NC(C)(C)C)cc1)C(=O)N[C@H](C(=O)NC)C(C)(C)C)C(=O)O` , tested on 72 kDa type IV collagenase (Homo sapiens, UniProt P08253), has a reported Ki of 17

Entry `CCCC[C@@H](C[C@@H](CCc1ccc(-c2cccc(N)c2)cc1)C(=O)N[C@H](C(=O)Nc1ccccc1)C(C)(C)C)C(=O)O` , tested on 72 kDa type IV collagenase (Homo sapiens, UniProt P08253), has a reported Ki of 280

* * *

Dear all, this message contains Ki results, target or system Stromelysin-1 (Homo sapiens, UniProt P08254).
Could you give me the number in nM? Just the number is fine.

Reference set (6 entries):
CCCC[C@@H](C[C@@H](CCc1ccc(Cc2ccccc2)cc1)C(=O)N[C@H](C(=O)Nc1ccccc1)C(C)(C)C)C(=O)O 1400
CCCC[C@@H](C[C@@H](CCc1ccc(-c2ccc3ccccc3c2)cc1)C(=O)N[C@H](C(=O)NC)C(C)(C)C)C(=O)O 120
CCCC[C@@H](C[C@@H](CCc1ccc(OCc2ccccc2)cc1)C(=O)N[C@H](C(=O)NC)C(C)(C)C)C(=O)O 74
CCCC[C@@H](C[C@@H](CCc1ccc(-c2ccc(F)cc2)cc1)C(=O)N[C@H](C(=O)Nc1ccccc1)C(C)(C)C)C(=O)O 4
CCCC[C@@H](C[C@@H](CCc1ccc(CCC)cc1)C(=O)N[C@H](C(=O)Nc1ccncc1)C(C)(C)C)C(=O)O 11
CCCC[C@@H](C[C@@H](CCc1ccc(-c2cccc(F)c2)cc1)C(=O)N[C@H](C(=O)NC)C(C)(C)C)C(=O)O 21

Continue with the next compound.
Entry `CCCC[C@@H](C[C@@H](CCc1ccc(CCC)cc1)C(=O)N[C@H](C(=O)NC)C(C)(C)C)C(=O)O` , tested on Stromelysin-1 (Homo sapiens, UniProt P08254), has a reported Ki of 140
